These entries and their values trace back to patent US20250237662A1.

# Av. Resp. annotations
TGT: humanized development candidate monoclonal antibody IgG4 (hIgG4)
ASSAY INFO: Gyrolab, mAb as capture, hIgG4 0.32 ng/ml
QUANTITY KIND: Av. Resp.

>>> value_measured("rabbit anti-human IgG monoclonal antibody clone 11G5 (antibody, V domains shown) VH: QSLEESGGDLVKPGASLTLTCTASGFSFSSSYYMCWVRQAPGKRLEWIACIYGGGLSNTYYAGWAKGRFTISKTSSTTVTLQMTSLTAADTATYFCARDATSGDYLNLWGPGTLVTVSS VL: AVVMTQTASPVSGAVGGTVTINCQASQSISASALSWYQQKPGQPPKLLIYAASTLESGVPSRFKGSGSGTQFTLTISGVQCDDAATYYCAYDGYRLSSADNIFGGGTEVVVKG")
7.5
>>> value_measured("rabbit anti-human IgG monoclonal antibody clone 16F5 (antibody, V domains shown) VH: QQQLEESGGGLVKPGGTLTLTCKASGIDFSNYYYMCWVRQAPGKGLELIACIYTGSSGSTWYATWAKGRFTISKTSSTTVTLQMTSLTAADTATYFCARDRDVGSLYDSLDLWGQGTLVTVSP VL: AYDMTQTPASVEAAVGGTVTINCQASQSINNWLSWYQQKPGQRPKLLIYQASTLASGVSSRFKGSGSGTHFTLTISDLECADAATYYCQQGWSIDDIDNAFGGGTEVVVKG")
4.4
>>> value_measured("rabbit anti-human IgG monoclonal antibody clone 9E6 (antibody, V domains shown) VH: QSLEESGGDLVKPGASLTLTCKASGFDFSSSYYMCWVRQAPGRLEWIACIYGGGLSNTYYAGWAKGRFTISKTSSTTVTLQMTSLTVADTATYFCARDAGTSGDYLNLWGPGTLVTVSS VL: AVVMTQTASPVSGAVGGTVTINCQASQSISSSYLSWYQQKPGQPPKLLIYGASTLASGVPSRFKGSGSGTQFTLTISGVQCDDAATYYCAYDAYRLSSPDNIFGGGTEVVVKG")
3
